attribute measured: melting point

Check out these entries, answers already filled in.
O=C(CC(C(=O)O)c1c[nH]c2cc(OCc3ccccc3)ccc12)c1ccc(F)cc1F (stereo not shown) :: 177 to 178 °C
Cc1ccc2[nH]cc(C(CC(=O)c3ccc(F)cc3F)C(=O)O)c2c1 (stereo not shown) :: 200 to 202 °C
CCCCCOc1ccc2cccc(CC(=O)O)c2c1 :: 104 to 106 °C

Next:
Which measured melting point value corresponds to CCCOc1ccc2[nH]cc(CC(=O)O)c2c1 ? 133.6 to 136.8 °C

* * *

attribute measured: melting point

Worked set:
O=C(CC(C(=O)O)c1c[nH]c2cc(F)ccc12)c1ccc(F)cc1F (stereo not shown) :: 210 to 214 °C
CCCn1cc(C(CC(=O)c2ccc(C)cc2C)C(=O)O)c2ccccc21 (stereo not shown) :: 139 to 141 °C
O=C(CC(C(=O)O)c1c[nH]c2cccc(Cl)c12)c1ccc(F)cc1F (stereo not shown) :: 203 to 204 °C

For CCCCOc1ccc2[nH]cc(CC(=O)O)c2c1 , what is its reported melting point? 137.8 to 141.1 °C

* * *

attribute measured: melting point

What measured melting point goes with O=C(CC(C(=O)O)c1c[nH]c2ccccc12)c1ccccc1 (stereo not drawn) ? 149 to 150 °C

// returns reported melting point for input CCCCOc1ccc2cccc(CC(=O)O)c2c1 102 to 104 °C

Return reported melting point; argument: COc1cccc2c(C(CC(=O)c3ccc(F)cc3F)C(=O)O)c[nH]c12 (stereo not drawn) 181 to 183 °C

What value of melting point has been recorded for this entry: CCOc1ccc2[nH]cc(CC(=O)O)c2c1 86 to 92.7 °C

melting point for O=C(CC(C(=O)O)c1c[nH]c2ccc(Cl)cc12)c1ccc(F)cc1F (stereo not drawn) ? 236 to 239 °C

* * *

attribute measured: melting point

COc1ccc2[nH]cc(C(CC(=O)c3ccc(F)cc3F)C(=O)O)c2c1 (stereo not shown) :: 205 to 206 °C
O=C(CC(C(=O)O)c1c[nH]c2ccc(F)cc12)c1ccc(F)cc1F (stereo not shown) :: 207 to 208 °C
O=C(CC(C(=O)O)c1c[nH]c2c(Cl)cccc12)c1ccc(F)cc1F (stereo not shown) :: 225 to 227 °C

Please look at the following compound next.
Recorded melting point for Cn1cc(C(CC(=O)c2ccc(F)cc2F)C(=O)O)c2ccccc21 (stereo not shown) , please? 192 to 193 °C
